# ASSAY_DETAILS: Safety and pharmacokinetics of CMX001 in healthy volunteers
# Assay type: in vivo, human
# STUDY_CONDITIONS: blood, 0.4 mg/kg; Human, CMX001 0.400 mg/kg; analyte = label
MEASURED_ATTRIBUTE: AUC
I'd appreciate it if you wrote the number followed by its unit.

### Prompt Recorded AUC for CCCCCCCCCCCCCCCCOCCCOP(=O)(O)CO[C@H](CO)Cn1ccc(N)nc1=O , please?
### Response 526 ng·h/mL

### Prompt Let us now turn to Nc1ccn(C[C@@H](CO)OCP(=O)(O)O)c(=O)n1 [Cidofovir, cidofovir, reference compound]
### Response 445 ng·h/mL

### Prompt Let us now turn to Nc1ccn(C[C@@H](CO)OCP(=O)(O)OCCCOCCCC(=O)O)c(=O)n1
### Response 203 ng·h/mL
